FYI, the data here is from ChEMBL document CHEMBL5223119.

ASSAY_EXPLANATION: Tmax in rat at 5 mg/kg,IG measured upto 24 hrs by LC-MS/MS analysis
Type: ADME, organism-based
PARTICULARS: in vivo, po
# maps each entry to its Tmax
MEASUREMENT_NAME: Tmax (h)

SMI | MEASUREMENT_NAME | EXPERIMENTAL_VALUE
CCCc1c(F)c2cnc(Nc3ccc(N4CCN(C)CC4)cc3)nc2n1-c1cccc(N=S(C)(C)=O)n1 | Tmax | 1.67
Cc1cc2cnc(Nc3ccc(N4CCN(C)CC4)cc3)nc2n1-c1cccc(C(C)(C)O)n1 | Tmax | 1
CCCc1cc2cnc(Nc3ccc(N4CCN(C)CC4)cc3)nc2n1-c1cccc(N=S(C)(C)=O)n1 | Tmax | 2.33
CCc1cc2cnc(Nc3ccc(N4CCN(C)CC4)cc3)nc2n1-c1cccc(N=S(C)(C)=O)n1 | Tmax | 2.67

---

ASSAY_EXPLANATION: Cmax in rat at 5 mg/kg,IG measured upto 24 hrs by LC-MS/MS analysis
Type: ADME, organism-based
Set-up: dose 5 mg/kg, time < 24 hrs, route ig
PARTICULARS: in vivo, po
# maps each entry to its Cmax

SMI | Cmax (ng/mL)
CN1CCN(C2CCN(c3ccc(Nc4ncc5c(F)c(C6CC6)n(-c6cccc(C(C)(C)O)n6)c5n4)cc3)CC2)CC1 | 83
CN1CCC2(CC1)CCN(c1ccc(Nc3ncc4cc(C5CC5)n(-c5cccc(C(C)(C)O)n5)c4n3)cc1)CC2 | 163
CCCc1c(F)c2cnc(Nc3ccc(N4CCN(C)CC4)cc3)nc2n1-c1cccc(N=S(C)(C)=O)n1 | 36.8
CN1CCN(c2ccc(Nc3ncc4cc(C5CC5)n(-c5cccc(N=S(C)(C)=O)n5)c4n3)cc2)CC1 | 76.9

---

TESTED_ON: Wee1-like protein kinase (Homo sapiens)
Sequence (P30291 whole entry): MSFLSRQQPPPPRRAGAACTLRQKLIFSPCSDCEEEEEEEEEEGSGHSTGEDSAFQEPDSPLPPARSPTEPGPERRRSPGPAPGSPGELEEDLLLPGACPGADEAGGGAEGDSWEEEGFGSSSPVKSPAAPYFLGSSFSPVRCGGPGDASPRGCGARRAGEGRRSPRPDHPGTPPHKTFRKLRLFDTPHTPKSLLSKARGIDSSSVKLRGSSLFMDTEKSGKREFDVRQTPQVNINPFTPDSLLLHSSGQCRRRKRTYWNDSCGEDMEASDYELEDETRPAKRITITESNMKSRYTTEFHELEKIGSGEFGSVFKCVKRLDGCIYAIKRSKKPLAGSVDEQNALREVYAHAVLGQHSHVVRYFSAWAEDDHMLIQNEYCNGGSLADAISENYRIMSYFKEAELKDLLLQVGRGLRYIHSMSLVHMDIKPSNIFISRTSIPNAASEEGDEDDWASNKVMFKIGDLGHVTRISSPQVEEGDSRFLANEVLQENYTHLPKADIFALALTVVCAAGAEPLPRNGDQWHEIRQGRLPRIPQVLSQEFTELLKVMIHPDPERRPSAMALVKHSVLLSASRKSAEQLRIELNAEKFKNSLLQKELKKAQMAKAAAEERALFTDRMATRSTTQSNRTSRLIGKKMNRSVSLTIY
# note: boundary value 8 nM maps to no (0); IC50 below it maps to yes (1)

SMI | QUALITATIVE_LABEL
CCCc1c(F)c2cnc(Nc3ccc(N4CCN(C)CC4)cc3)nc2n1-c1cccc(C(C)(C)O)n1 | no (0)
COCc1cc2cnc(Nc3ccc(N4CCN(C)CC4)cc3)nc2n1-c1cccc(N=S(C)(C)=O)n1 | yes (1)
CC(C)c1cc2cnc(Nc3ccc(N4CCN(C)CC4)cc3)nc2n1-c1cccc(C(C)(C)O)n1 | yes (1)
CN1CCN(c2ccc(Nc3ncc4cc(C5CC5)n(-c5cccc(N=S(C)(C)=O)n5)c4n3)cc2)CC1 | yes (1)
CCc1cc2cnc(Nc3ccc(N4CCN(C)CC4)cc3)nc2n1-c1cccc(C(C)(C)O)n1 | yes (1)
CN1CCN(C2CCN(c3ccc(Nc4ncc5c(F)c(C6CC6)n(-c6cccc(C(C)(C)O)n6)c5n4)cc3F)CC2)CC1 | no (0)
CCCc1cc2cnc(Nc3ccc(N4CCOCC4)cc3)nc2n1-c1cccc(N=S(C)(C)=O)n1 | no (0)
CN1CCN(C2CCN(c3ccc(Nc4ncc5c(F)c(C6CC6)n(-c6cccc(C(C)(C)O)n6)c5n4)cc3)CC2)CC1 | yes (1)

---

# maps each entry to its log10 of IC50
System: NCI-H1299
ASSAY_EXPLANATION: Antiproliferative activity against human NCI-H1299 cells assessed as cell growth inhibition incubated for 3 days by CellTiter-Glo Luminescent assay
Assay type: functional, cell-based
PARTICULARS: NCI-H1299, 72 h
MEASUREMENT_NAME: log10 of IC50 (log10 of the value in µM)

SMI | MEASUREMENT_NAME | EXPERIMENTAL_VALUE
COCc1cc2cnc(Nc3ccc(N4CCN(C)CC4)cc3)nc2n1-c1cccc(N=S(C)(C)=O)n1 | log10 of IC50 | -1.00
CCCc1cc2cnc(Nc3ccc(N4CCOCC4)cc3)nc2n1-c1cccc(N=S(C)(C)=O)n1 | log10 of IC50 | -0.35
CN1CCN(c2ccc(Nc3ncc4cc(C5CC5)n(-c5cccc(N=S(C)(C)=O)n5)c4n3)cc2)CC1 | log10 of IC50 | -1.38
CN1CCN(C2CCN(c3ccc(Nc4ncc5c(F)c(C6CC6)n(-c6cccc(C(C)(C)O)n6)c5n4)cc3)CC2)CC1 | log10 of IC50 | -0.68
C=CCn1c(=O)c2cnc(Nc3ccc(N4CCN(C)CC4)cc3)nc2n1-c1cccc(C(C)(C)O)n1 | log10 of IC50 | -0.98
CN1CCN(C2CCN(c3ccc(Nc4ncc5cc(C6CC6)n(-c6cccc(N=S(C)(C)=O)n6)c5n4)cc3)CC2)CC1 | log10 of IC50 | -0.81
CN1CCN(C2CCN(c3ccc(Nc4ncc5cc(C6CC6)n(-c6cccc(C(C)(C)O)n6)c5n4)cc3)CC2)CC1 | log10 of IC50 | -0.98
CN1CCN(C2CCN(c3ccc(Nc4ncc5c(F)c(C6CC6)n(-c6cccc(C(C)(C)O)n6)c5n4)cc3F)CC2)CC1 | log10 of IC50 | -0.21

---

# maps each entry to its log10 of AUC(0-inf)
ASSAY_EXPLANATION: AUC (0-infinity) in rat at 5 mg/kg,IG measured upto 24 hrs by LC-MS/MS analysis
Format: ADME, organism-based
Design: dose 5 mg/kg, time < 24 hrs, route ig
PARTICULARS: in vivo, po
MEASUREMENT_NAME: log10 of AUC(0-inf) (log10 of the value in ng·h/mL)

SMI | log10 of AUC(0-inf)
CN1CCC2(CC1)CCN(c1ccc(Nc3ncc4cc(C5CC5)n(-c5cccc(C(C)(C)O)n5)c4n3)cc1)CC2 | 3.61
CN1CCN(c2ccc(Nc3ncc4cc(C5CC5)n(-c5cccc(N=S(C)(C)=O)n5)c4n3)cc2)CC1 | 2.46
CN1CCN(C2CCN(c3ccc(Nc4ncc5c(F)c(C6CC6)n(-c6cccc(C(C)(C)O)n6)c5n4)cc3F)CC2)CC1 | 3.66
Cc1cc2cnc(Nc3ccc(N4CCN(C)CC4)cc3)nc2n1-c1cccc(C(C)(C)O)n1 | 2.85
CCCc1cc2cnc(Nc3ccc(N4CCN(C)CC4)cc3)nc2n1-c1cccc(N=S(C)(C)=O)n1 | 2.27
CCCc1c(F)c2cnc(Nc3ccc(N4CCN(C)CC4)cc3)nc2n1-c1cccc(N=S(C)(C)=O)n1 | 2.50
CN1CCN(C2CCN(c3ccc(Nc4ncc5c(F)c(C6CC6)n(-c6cccc(C(C)(C)O)n6)c5n4)cc3)CC2)CC1 | 3.24
CCc1cc2cnc(Nc3ccc(N4CCN(C)CC4)cc3)nc2n1-c1cccc(N=S(C)(C)=O)n1 | 1.68

---

ASSAY_EXPLANATION: Half life in rat at 5 mg/kg,IG measured upto 24 hrs by LC-MS/MS analysis
Assay type: ADME, organism-based
PARTICULARS: in vivo, po
MEASUREMENT_NAME: log10 half-life (log10 of the value in h)

SMI | log10 half-life
CCc1cc2cnc(Nc3ccc(N4CCN(C)CC4)cc3)nc2n1-c1cccc(N=S(C)(C)=O)n1 | 0.35
CN1CCN(C2CCN(c3ccc(Nc4ncc5c(F)c(C6CC6)n(-c6cccc(C(C)(C)O)n6)c5n4)cc3F)CC2)CC1 | 1.52
Cc1cc2cnc(Nc3ccc(N4CCN(C)CC4)cc3)nc2n1-c1cccc(C(C)(C)O)n1 | 0.55
CN1CCC2(CC1)CCN(c1ccc(Nc3ncc4cc(C5CC5)n(-c5cccc(C(C)(C)O)n5)c4n3)cc1)CC2 | 1.28
CCCc1c(F)c2cnc(Nc3ccc(N4CCN(C)CC4)cc3)nc2n1-c1cccc(N=S(C)(C)=O)n1 | 0.66
CCCc1cc2cnc(Nc3ccc(N4CCN(C)CC4)cc3)nc2n1-c1cccc(N=S(C)(C)=O)n1 | 0.51
CN1CCN(C2CCN(c3ccc(Nc4ncc5c(F)c(C6CC6)n(-c6cccc(C(C)(C)O)n6)c5n4)cc3)CC2)CC1 | 1.04
CN1CCN(c2ccc(Nc3ncc4cc(C5CC5)n(-c5cccc(N=S(C)(C)=O)n5)c4n3)cc2)CC1 | 0.92

---

Tested on: NCI-H1299
ASSAY_EXPLANATION: Antiproliferative activity against human NCI-H1299 cells assessed as cell growth inhibition incubated for 3 days by CellTiter-Glo Luminescent assay
Assay type: functional, cell-based
PARTICULARS: NCI-H1299, 72 h
pIC50: −log10 of the molar value.
# maps each entry to its pIC50

SMI | pIC50
CCCc1cc2cnc(Nc3ccc(N4CCC(N5CCN(C)CC5)CC4)cc3)nc2n1-c1cccc(N=S(C)(C)=O)n1 | 7.06
CCCc1c(F)c2cnc(Nc3ccc(N4CCOCC4)cc3)nc2n1-c1cccc(N=S(C)(C)=O)n1 | 6.48
CC(C)c1cc2cnc(Nc3ccc(N4CCN(C)CC4)cc3)nc2n1-c1cccc(C(C)(C)O)n1 | 7.04
CCCc1cc2cnc(Nc3ccc(N4CCN(C)CC4)cc3)nc2n1-c1cccc(N=S(C)(C)=O)n1 | 7.48
CCCc1c(F)c2cnc(Nc3ccc(N4CCN(C)CC4)cc3)nc2n1-c1cccc(C(C)(C)O)n1 | 5.76
CCc1cc2cnc(Nc3ccc(N4CCN(C)CC4)cc3)nc2n1-c1cccc(N=S(C)(C)=O)n1 | 7.64
CC(C)c1cc2cnc(Nc3ccc(N4CCN(C)CC4)cc3)nc2n1-c1cccc(N=S(C)(C)=O)n1 | 7.00
CN1CCN(c2ccc(Nc3ncc4cc(C5CC5)n(-c5cccc(N=S(C)(C)=O)n5)c4n3)cc2F)CC1 | 7.38
